The origin of these recorded values is patent US20250320281A1.

biological target: HIV-1 Env of isolate ZM214 (clade C pseudovirus) (HIV-1); test: cell-based or functional assay
MEASURED ATTRIBUTE: IC50 (neutralization, TZM-bl pseudovirus assay)

BINDER	RECORDED MEASUREMENT
1456_A12 (PG16) (TCN-117) (antibody, V domains shown) VH: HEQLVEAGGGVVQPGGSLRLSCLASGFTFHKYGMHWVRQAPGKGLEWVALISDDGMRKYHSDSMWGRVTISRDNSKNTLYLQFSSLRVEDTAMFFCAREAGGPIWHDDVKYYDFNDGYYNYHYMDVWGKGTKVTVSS VL: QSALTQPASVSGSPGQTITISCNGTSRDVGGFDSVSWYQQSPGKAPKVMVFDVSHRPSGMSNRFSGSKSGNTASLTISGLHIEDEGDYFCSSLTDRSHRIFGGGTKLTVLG	> 25 µg/mL
1489_I13 (PG16) (TCN-120) (antibody, V domains shown) VH: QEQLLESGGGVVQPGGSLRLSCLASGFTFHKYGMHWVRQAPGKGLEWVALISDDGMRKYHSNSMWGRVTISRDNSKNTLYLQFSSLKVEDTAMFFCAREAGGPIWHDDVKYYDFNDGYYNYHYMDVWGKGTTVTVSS VL: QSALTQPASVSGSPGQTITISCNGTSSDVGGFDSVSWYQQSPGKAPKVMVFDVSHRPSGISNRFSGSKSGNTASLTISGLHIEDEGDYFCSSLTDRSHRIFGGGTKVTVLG	> 25 µg/mL

// next entry
QUERY: Recall and state the measured IC50 (neutralization, TZM-bl pseudovirus assay) for 1469_M23 (PG16) (TCN-118) (antibody, V domains shown) VH: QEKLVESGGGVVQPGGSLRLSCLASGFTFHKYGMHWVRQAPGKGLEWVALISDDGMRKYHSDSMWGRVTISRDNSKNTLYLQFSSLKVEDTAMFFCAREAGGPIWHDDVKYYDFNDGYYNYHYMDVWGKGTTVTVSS VL: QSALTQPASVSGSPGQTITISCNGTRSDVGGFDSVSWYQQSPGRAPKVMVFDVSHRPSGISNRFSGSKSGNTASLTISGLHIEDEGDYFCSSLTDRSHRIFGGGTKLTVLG .
RESULT: > 25 µg/mL
